// provenance: patent US7947695B2

experimental target: CDK4/cyclinD1 (Homo sapiens)
Sequence (P11802 whole entry): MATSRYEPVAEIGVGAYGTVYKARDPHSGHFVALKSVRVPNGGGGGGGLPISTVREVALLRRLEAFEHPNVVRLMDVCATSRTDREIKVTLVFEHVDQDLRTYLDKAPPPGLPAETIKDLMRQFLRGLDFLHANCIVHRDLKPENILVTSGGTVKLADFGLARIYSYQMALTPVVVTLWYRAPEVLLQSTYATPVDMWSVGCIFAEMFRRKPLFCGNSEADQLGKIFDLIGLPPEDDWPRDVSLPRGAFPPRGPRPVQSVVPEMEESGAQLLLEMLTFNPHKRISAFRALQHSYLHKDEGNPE
Sequence (P24385 whole entry partner): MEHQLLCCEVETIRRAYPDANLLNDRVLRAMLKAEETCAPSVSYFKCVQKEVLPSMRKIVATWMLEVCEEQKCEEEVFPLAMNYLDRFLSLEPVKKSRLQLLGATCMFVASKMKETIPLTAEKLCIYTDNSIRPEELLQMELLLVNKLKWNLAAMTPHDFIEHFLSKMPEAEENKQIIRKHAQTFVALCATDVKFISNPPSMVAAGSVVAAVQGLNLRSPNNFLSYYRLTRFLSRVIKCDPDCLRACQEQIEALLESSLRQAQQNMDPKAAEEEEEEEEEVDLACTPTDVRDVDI
measurement notes: In vitro filtration assay for CDK4 inhibitory activity (pRb phosphorylation, [33P]-ATP)
Format: biochemical
run parameters: GST-pRb substrate, 1 μM unlabeled ATP, 25° C. 45 minutes, read-out: cdk4 filter (pIC50) (converted)
property name: IC50

> print(dat)
                              smiles.string    result
1  CN1CCC(NCc2ccc(N(C(=O)OC(C)(C)C)c3ncc4cnn(C5CCOCC5)c4n3)cc2)CC1   > 10 µM
2  COCCCN1CCN(Cc2ccc(N(C(=O)OC(C)(C)C)c3ncc4cnn(C5CCCCC5)c4n3)cc2)CC1   > 10 µM
3  CC(C)(C)OC(=O)N(c1ccc(CN2CCOCC2)cc1)c1ncc2cnn(C3CCOCC3)c2n1   > 10 µM
4  COCCCN1CCC(NC(=O)c2ccc(Nc3ncc4cnn(C5CCCCC5)c4n3)cc2)CC1  0.631 µM
5  CN1CCC(NCc2ccc(Nc3ncc4[nH]c(=O)n(C5CCCCC5)c4n3)cc2)CC1   3.98 µM

Query :: Please report IC50 for the following molecule: `CC(C)(O)CN1CCN(c2ccc(Nc3ncc4cnn(C5CCCCC5)c4n3)cc2)CC1`
Result :: 0.126 µM

Query :: Please report IC50 for the following molecule: `COCCCC(=O)N1CCN(Cc2ccc(N(C(=O)OC(C)(C)C)c3ncc4cnn(C5CCCCC5)c4n3)cc2)CC1`
Result :: > 10 µM

Query :: Please report IC50 for the following molecule: `CC(C)(C)OC(=O)N(c1ccc(CN2CCN(CCO)CC2)cc1)c1ncc2cnn(C3CCOCC3)c2n1`
Result :: > 10 µM
